Please provide measured IC50 for the entries that follow.
- Measured Target: recombinant human MMP-2 (Homo sapiens, UniProt P08253)
- Sequence (P08253 110-660): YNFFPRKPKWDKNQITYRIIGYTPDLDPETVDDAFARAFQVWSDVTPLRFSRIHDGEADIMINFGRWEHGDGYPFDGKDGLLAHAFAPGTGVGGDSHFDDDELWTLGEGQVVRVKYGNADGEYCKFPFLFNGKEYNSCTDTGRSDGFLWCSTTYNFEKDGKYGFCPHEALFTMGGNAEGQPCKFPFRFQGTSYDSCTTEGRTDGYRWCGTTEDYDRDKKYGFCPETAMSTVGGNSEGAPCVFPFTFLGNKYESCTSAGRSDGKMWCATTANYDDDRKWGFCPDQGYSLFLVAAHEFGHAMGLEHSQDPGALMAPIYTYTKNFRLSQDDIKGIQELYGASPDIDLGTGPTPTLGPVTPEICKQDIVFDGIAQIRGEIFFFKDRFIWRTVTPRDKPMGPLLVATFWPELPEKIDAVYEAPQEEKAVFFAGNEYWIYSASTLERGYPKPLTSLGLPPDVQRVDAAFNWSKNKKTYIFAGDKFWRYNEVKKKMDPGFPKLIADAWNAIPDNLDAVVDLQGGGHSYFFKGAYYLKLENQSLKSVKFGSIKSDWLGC
- Test: biochemical
- Measurement Setup: Inhibition Table B
Please give a number only; it is taken to be in nM.

## Input Tell us which IC50 value is on record for O=C(C1CCN(c2ccc(S(=O)(=O)C3(C(=O)NO)CCOCC3)cc2)CC1)N1CCOCC1
## Output 650

## Input Tell us which IC50 value is on record for CCNC(=O)C1CCN(c2ccc(S(=O)(=O)C3(C(=O)NO)CCOCC3)cc2)CC1
## Output 29

## Input Tell us which IC50 value is on record for O=C(C1CCN(c2ccc(S(=O)(=O)C3(C(=O)NO)CCOCC3)cc2)CC1)N1CCC(Cc2ccccc2)CC1
## Output 350

## Input Tell us which IC50 value is on record for CCOC(=O)C1CCCN(C(=O)C2CCCN(c3ccc(S(=O)(=O)C4(C(=O)NO)CCOCC4)cc3)C2)C1 (stereo not shown)
## Output 4700

## Input Tell us which IC50 value is on record for CCOC(=O)C1CCCN(C(=O)C2CCN(c3ccc(S(=O)(=O)C4(C(=O)NO)CCOCC4)cc3)CC2)C1 (stereo not shown)
## Output 2700

----------
- Measured Target: recombinant human MMP-2 (Homo sapiens)
- Test: biochemical
- Measurement Setup: Inhibition Table B
Please note: IC50 exactly at 2000 nM is -1. Only values below 2000 nM get 1.

## Input Find out if reported IC50 for CC1(C)C[C@@H]2C[C@@](C)(CN2C(=O)C2CCCN(c3ccc(S(=O)(=O)C4(C(=O)NO)CCOCC4)cc3)C2)C1 (stereo partly shown) is less than 2000 nM
## Output -1

## Input Find out if reported IC50 for O=C(C1CCN(c2ccc(S(=O)(=O)C3(C(=O)NO)CCOCC3)cc2)CC1)N1CCNCC1 is less than 2000 nM
## Output 1

## Input Find out if reported IC50 for O=C(NCc1cccs1)C1CCN(c2ccc(S(=O)(=O)C3(C(=O)NO)CCOCC3)cc2)CC1 is less than 2000 nM
## Output 1

## Input Find out if reported IC50 for CCOC(=O)C1CCN(C(=O)C2CCN(c3ccc(S(=O)(=O)C4(C(=O)NO)CCOCC4)cc3)CC2)CC1 is less than 2000 nM
## Output -1

## Input Find out if reported IC50 for C[C@@H]1CN(C(=O)C2CCN(c3ccc(S(=O)(=O)C4(C(=O)NO)CCOCC4)cc3)CC2)C[C@H](C)O1 is less than 2000 nM
## Output 1

----------
- Measured Target: recombinant human MMP-2 (Homo sapiens, UniProt P08253)
- Test: biochemical
- Measurement Setup: Inhibition Table B
Where a name gives a salt, the structure may show the parent alone.
# binning rule on IC50: bin A = under 200 nM, bin B = from 200 nM up to 400 nM, bin C = 400 nM and over

## Input Please report the category associated with O=C(C1CCN(c2ccc(S(=O)(=O)C3(C(=O)NO)CCOCC3)cc2)CC1)N1CCC(c2ccccc2)CC1 , nothing else.
## Output bin B

## Input Please report the category associated with O=C(NO)C1CCCN(c2ccc(S(=O)(=O)C3(C(=O)NO)CCOCC3)cc2)C1 (stereo not drawn) , nothing else.
## Output bin C

## Input Please report the category associated with CC1(C)C[C@@H]2C[C@@](C)(CN2C(=O)C2CCN(c3ccc(S(=O)(=O)C4(C(=O)NO)CCOCC4)cc3)CC2)C1 , nothing else.
## Output bin C

## Input Please report the category associated with O=C(C1CCN(c2ccc(S(=O)(=O)C3(C(=O)NO)CCOCC3)cc2)CC1)N1CCc2ccccc2C1 , nothing else.
## Output bin A

## Input Please report the category associated with O=C(NO)C1CCN(c2ccc(S(=O)(=O)C3(C(=O)NO)CCOCC3)cc2)CC1 , nothing else.
## Output bin B

## Input Please report the category associated with N[C@H]1CCN(C(=O)C2CCCN(c3ccc(S(=O)(=O)C4(C(=O)NO)CCOCC4)cc3)C2)C1 (stereo partly drawn) , nothing else.
## Output bin C

## Input Please report the category associated with O=C(NO)C1(S(=O)(=O)c2ccc(-c3ccc(Cl)cc3)cc2)CCOCC1 , nothing else.
## Output bin A

## Input Please report the category associated with Cc1ccc(-c2ccc(S(=O)(=O)C3(C(=O)NO)CCOCC3)cc2)cc1C , nothing else.
## Output bin A

## Input Please report the category associated with CN(C)[C@H]1CCN(C(=O)C2CCN(c3ccc(S(=O)(=O)C4(C(=O)NO)CCOCC4)cc3)CC2)C1 , nothing else.
## Output bin C

## Input Please report the category associated with O=C(C1CCCN(c2ccc(S(=O)(=O)C3(C(=O)NO)CCOCC3)cc2)C1)N1CCNCC1 (stereo not drawn) , nothing else.
## Output bin C

## Input Please report the category associated with CN(C)C(=O)N1CCN(c2ccc(S(=O)(=O)C3(C(=O)NO)CCOCC3)cc2)CC1 , nothing else.
## Output bin A

## Input Please report the category associated with O=C(NO)C1(S(=O)(=O)c2ccc(-c3cc4ccccc4o3)cc2)CCOCC1 , nothing else.
## Output bin A

## Input Please report the category associated with CNC(=O)C1CCN(c2ccc(S(=O)(=O)C3(C(=O)NO)CCOCC3)cc2)CC1 , nothing else.
## Output bin A

## Input Please report the category associated with C#CCN1CCC(C(=O)O)(S(=O)(=O)c2ccc(Sc3ccc(Cl)cc3)cc2)CC1 [Example 44a, monohydrochloride] , nothing else.
## Output bin A

## Input Please report the category associated with CCCCNC(=O)C1CCN(c2ccc(S(=O)(=O)C3(C(=O)NO)CCOCC3)cc2)CC1 , nothing else.
## Output bin A

## Input Please report the category associated with CC1CCN(C(=O)C2CCN(c3ccc(S(=O)(=O)C4(C(=O)NO)CCOCC4)cc3)CC2)CC1 , nothing else.
## Output bin B

## Input Please report the category associated with NCCCNC(=O)C1CCCN(c2ccc(S(=O)(=O)C3(C(=O)NO)CCOCC3)cc2)C1 (stereo not drawn) , nothing else.
## Output bin C

## Input Please report the category associated with O=C(NCc1cccnc1)C1CCN(c2ccc(S(=O)(=O)C3(C(=O)NO)CCOCC3)cc2)CC1 , nothing else.
## Output bin A

## Input Please report the category associated with O=C(C1CCN(c2ccc(S(=O)(=O)C3(C(=O)NO)CCOCC3)cc2)CC1)N(Cc1ccccc1)Cc1ccccc1 , nothing else.
## Output bin B

## Input Please report the category associated with O=C(O)CNC(=O)C1CCN(c2ccc(S(=O)(=O)C3(C(=O)NO)CCOCC3)cc2)CC1 , nothing else.
## Output bin C

## Input Please report the category associated with CN(C)CCCN(CCCN(C)C)C(=O)C1CCN(c2ccc(S(=O)(=O)C3(C(=O)NO)CCOCC3)cc2)CC1 , nothing else.
## Output bin B

## Input Please report the category associated with O=C(C1CCCN(c2ccc(S(=O)(=O)C3(C(=O)NO)CCOCC3)cc2)C1)N1CCC(N2CCCC2)CC1 (stereo not drawn) , nothing else.
## Output bin C

## Input Please report the category associated with CN1CCN(C(=O)N2CCN(c3ccc(S(=O)(=O)C4(C(=O)NO)CCOCC4)cc3)CC2)CC1 , nothing else.
## Output bin A

## Input Please report the category associated with C#CCN1CCC(C(=O)NO)(S(=O)(=O)c2ccc([S+]([O-])c3ccccc3)cc2)CC1 (stereo not drawn) [Example 47b] , nothing else.
## Output bin C

## Input Please report the category associated with O=C(N1CCNCC1)N1CCN(c2ccc(S(=O)(=O)C3(C(=O)NO)CCOCC3)cc2)CC1 , nothing else.
## Output bin A

## Input Please report the category associated with CCOC(=O)C1CCCCN1C(=O)C1CCCN(c2ccc(S(=O)(=O)C3(C(=O)NO)CCOCC3)cc2)C1 (stereo not drawn) , nothing else.
## Output bin C

## Input Please report the category associated with O=C(NC1CCCCC1)C1CCN(c2ccc(S(=O)(=O)C3(C(=O)NO)CCOCC3)cc2)CC1 , nothing else.
## Output bin B
